- testTarget: Lactoylglutathione lyase (Saccharomyces cerevisiae)
- assayExplanation: Inhibition of yeast glyoxalase-1 using methylglyoxal and glutathione as substrate
- testConditions: read-out: I50
Met if IC50 is below 40 mM. Not met if not; exact matches included in Not met.

{"columns": ["compound", "testTarget", "groupLabel"],
 "data": [
  ["COC(=O)CSC(=O)C(O)c1ccccc1 (configuration not stated)", "Lactoylglutathione lyase (Saccharomyces cerevisiae)", "Met"],
  ["O=C(SCc1ccccc1)C(O)c1ccccc1 (configuration not stated)", "Lactoylglutathione lyase (Saccharomyces cerevisiae)", "Met"],
  ["CC(O)C(=O)SCc1ccccc1 (configuration not stated)", "Lactoylglutathione lyase (Saccharomyces cerevisiae)", "Met"]
]}

Task: Strictly below 40 mM: is that where IC50 of CCCCSC(=O)C(C)O (configuration not stated) sits?
Output: Met

Task: Strictly below 40 mM: is that where IC50 of CCCCOC(=O)CSC(=O)C(O)c1ccccc1 (configuration not stated) sits?
Output: Not met

Task: Strictly below 40 mM: is that where IC50 of COC(=O)CCSC(=O)C(O)c1ccccc1 (configuration not stated) sits?
Output: Not met

Task: Strictly below 40 mM: is that where IC50 of CCCCSC(=O)C(O)c1ccccc1 (configuration not stated) sits?
Output: Met

----------
- testTarget: Lactoylglutathione lyase (Saccharomyces cerevisiae)
- assayExplanation: Competitive inhibition of yeast glyoxalase-1 using methylglyoxal and glutathione as substrate by Lineweaver-Burk plot analysis
valueKind: pKi
For clarity, pKi is expressed as the negative log10 of concentration in mol/L.

{"columns": ["compound", "valueKind", "value"],
 "data": [
  ["CCCCSC(=O)C(O)c1ccccc1 (configuration not stated)", "pKi", 1.53]
]}

Task: Param item = CCCCSC(=O)C(C)O (configuration not stated) ; retrieve measured pKi.
Output: 1.89

Task: Param item = CC(O)C(=O)SCc1ccccc1 (configuration not stated) ; retrieve measured pKi.
Output: 2.26

Task: Param item = CCCCOC(=O)CSC(=O)C(O)c1ccccc1 (configuration not stated) ; retrieve measured pKi.
Output: 1.46

Task: Param item = COC(=O)CSC(=O)C(O)c1ccccc1 (configuration not stated) ; retrieve measured pKi.
Output: 2.09

Task: Param item = O=C(SCc1ccccc1)C(O)c1ccccc1 (configuration not stated) ; retrieve measured pKi.
Output: 2.20

Task: Param item = COC(=O)CCSC(=O)C(O)c1ccccc1 (configuration not stated) ; retrieve measured pKi.
Output: 1.41

Data origin: ChEMBL document CHEMBL3272302
